target-desc: Concanavalin-A (Canavalia ensiformis) (UniProt P02866)
Sequence (P02866 whole entry, looked up): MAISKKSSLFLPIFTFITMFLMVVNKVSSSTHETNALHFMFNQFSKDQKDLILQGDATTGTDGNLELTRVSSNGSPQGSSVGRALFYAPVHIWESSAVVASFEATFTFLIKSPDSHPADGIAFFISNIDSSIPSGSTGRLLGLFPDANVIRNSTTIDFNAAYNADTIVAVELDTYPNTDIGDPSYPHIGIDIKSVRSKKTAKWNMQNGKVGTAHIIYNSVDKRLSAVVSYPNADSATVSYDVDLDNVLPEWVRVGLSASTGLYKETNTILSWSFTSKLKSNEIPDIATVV
assay-summary: ConA small-molecule binders, primary screen, artefact control for SMM control protein annotation, biochemical, small-molecule microarray, Alexa647 label, 635 nm (AID 1127);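 further: z combines 667 nm emission intensity with signal-to-noise across three replicate slides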
test-context: ConA-A647 binding fluorescence, higher = more signal
result-type: composite z-score
No unit in the answer, please; the number alone is enough.

GET /values?item= CCN1C(=O)[C@H]2[C@H]3[C@H](O)[C@H](O)CC(=NOCc4ccccc4)[C@@H]3CC[C@H]2C1=O &system= Concanavalin-A (Canavalia ensiformis) (UniProt P02866) returns composite z-score: 0.7

GET /values?item= C[C@@H]1C=CCC(=O)OC[C@H](C)C(=O)N[C@@H](C)C(=O)OC1 &system= Concanavalin-A (Canavalia ensiformis) (UniProt P02866) returns composite z-score: 0.155

GET /values?item= CCCNC(=O)OC[C@H]1O[C@H](CCON=C2[C@H]3CCn4c(=O)n(-c5ccccc5)c(=O)n4[C@H]3[C@H](O)[C@@H]3O[C@H]23)C=C[C@@H]1Oc1ccc(OC)cc1 &system= Concanavalin-A (Canavalia ensiformis) (UniProt P02866) returns composite z-score: 0.216

GET /values?item= CC(=O)OC[C@H]1O[C@H](CCON=C[C@@H](C)[C@H](OCc2ccccc2)C(C)C)C=C[C@@H]1OC(C)=O &system= Concanavalin-A (Canavalia ensiformis) (UniProt P02866) returns composite z-score: 0.0066

----------
target-desc: Calmodulin-1 (Homo sapiens) (UniProt P0DP23)
assay-summary: CALM1 binders on microarrays, EGTA buffer, profiling panel, biochemical, small-molecule microarray, Cy5-labelled CALM1 (AID 1111);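 further: labelled calmodulin applied in Tris saline Tween buffer holding calcium plus EGTA and DTT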
test-context: Cy5-CALM1 binding fluorescence, higher = more signal
result-type: composite z-score
No unit in the answer, please; the number alone is enough.

Lookup result for CCc1cc2c(nc1CC)CCN(CCC(C)=NOC[C@@H](O)[C@H]1O[C@@H]3OC(C)(C)O[C@@H]3[C@H]1O)C2 ; measured composite z-score: 1.68

Lookup result for CCOC(=O)[C@H](Cc1ccccc1)NC(=O)CCC1CC(OC(=O)NCc2ccc3c(c2)OCO3)CC2(CCCC(COC(=O)NCc3ccccc3)O2)O1 (stereo partly drawn) ; measured composite z-score: 0.351

Lookup result for CC(=O)OC[C@H]1O[C@@H](ON=C(C)CCN2CCc3nc(-c4ccccc4)c(-c4ccccc4)cc3C2)[C@H](OC(C)=O)[C@@H](OC(C)=O)[C@@H]1OC(C)=O ; measured composite z-score: 0.328

----------
assay-summary: P. aeruginosa biofilm formation inhibitors, primary screen, strain PAO1, LB-PBS medium, absorbance 600 nm (AID 1176)
test-context: P. aeruginosa PAO1 growth/biofilm, A600, 12 h; higher = more signal
Please respond with reported z-score for every item in the list.
No unit in the answer, please; the number alone is enough.

Lookup result for C=CCOC(=O)[C@H]1[C@@H]2C(=O)O[C@@H](c3ccccc3)[C@@H](c3ccccc3)N2[C@@H](c2ccc(OCCOC(=O)[C@H]3C[C@H]4C(=O)N[C@@H](Cc5ccccc5)C(=O)N4[C@H]3c3ccc(O)cc3)cc2)[C@]12C(=O)Nc1ccccc12 ; measured z-score: 2.64

Lookup result for O=C1[C@H]2[C@H]3[C@H](O)[C@H](O)CC(=NO[C@@H]4O[C@H](CO)[C@@H](O)[C@H](O)[C@H]4O)[C@@H]3CC[C@H]2C(=O)N1Cc1ccccc1 ; measured z-score: 0.565

Lookup result for O=C1[C@H]2[C@H]3[C@H](O)[C@H](O)CC(=NO[C@@H]4O[C@H](CO)[C@@H](O)[C@H](O)[C@H]4O)[C@H]3CC[C@H]2C(=O)N1C1CCCCC1 ; measured z-score: -0.613

Lookup result for CCCCCN1CC=CC23O[C@@H]4C=CCOC(=O)[C@@H]4[C@H]2C(=O)N(C(CO)C(C)C)[C@@H]3C1=O (stereo partly specified) ; measured z-score: 0.0126

Lookup result for COc1ccc(O[C@H]2C=C[C@@H](c3ccccc3)O[C@@H]2COC(=O)CCC(C)=NOCC[C@@H]2C=C[C@H](OC(C)=O)[C@@H](COC(C)=O)O2)cc1 ; measured z-score: -0.455

Lookup result for C[C@H](c1ccccc1)N1C(=O)[C@H]2[C@@H]3C(=CC[C@H]2C1=O)C(=O)[C@H]1O[C@H]1[C@H]3O ; measured z-score: -0.993

----------
Test system: XIP peptide (Xip251-270)
assay-summary: small-molecule binders of XIP peptide, primary screen, biochemical, small-molecule microarray, fluorescence 635/667 nm, 0.5 µg/mL protein (AID 1183)
test-context: small-molecule microarray binding, fluorescence 635 nm; higher = more signal
Please respond with reported composite z-score for every item in the list.
No unit in the answer, please; the number alone is enough.

Lookup result for CCOC(=O)[C@H](Cc1ccccc1)NC(=O)CCC1CC(OC(=O)NCc2ccc3c(c2)OCO3)CC2(CCCC(COC(=O)NCC3CCCCC3)O2)O1 (stereo not given in full) ; measured composite z-score: 0.646

Lookup result for C=CC[C@]1(C(=O)NCc2ccccc2)N=C(c2ccc(OCCCO)cc2)O[C@H]1c1ccccc1 ; measured composite z-score: 0.776

Lookup result for CN1C(=O)[C@@]2(CCC(=O)OC(C)(C)C)N=C(c3ccc(OCCCO)cc3)O[C@H]2c2ccccc21 ; measured composite z-score: 0.576

Lookup result for COCC(=C=CC[C@@H](O)c1ccccc1OCCO)CCO ; measured composite z-score: 0.0706

Lookup result for CCOC(=O)NN=C1C[C@@H](O)[C@@H](O)[C@@H]2[C@@H]3C(=O)N(CC)C(=O)[C@@H]3CC[C@@H]12 ; measured composite z-score: 0.482

Lookup result for CO[C@H]1O[C@H](CO)[C@@H](OC(=O)Nc2ccc3c(c2)OCO3)[C@H](OC(=O)Nc2ccccc2-c2ccccc2)[C@@H]1OC(=O)Nc1ccccc1-c1ccccc1 ; measured composite z-score: 0.561

Lookup result for CC(C)CON=C1[C@H]2CCn3c(=O)n(-c4ccccc4)c(=O)n3[C@H]2[C@H](O)[C@@H]2O[C@H]12 ; measured composite z-score: 0.263

Lookup result for C=CC[C@@H]1C=C[C@H](ON=C2c3cc(OC)ccc3O[C@H](c3cccc(OC)c3)[C@H]2O)[C@@H](CO)O1 ; measured composite z-score: -0.479

Lookup result for C/C=C\[C@@H](NCc1ccccc1Br)[C@@H](O)Cc1ccccc1 ; measured composite z-score: 0.0819

Lookup result for C#CCCCON=C1C[C@@H](O)[C@@H](O)[C@@H]2[C@@H]3C(=O)N(Cc4ccccc4)C(=O)[C@@H]3CC[C@H]12 ; measured composite z-score: -0.102

Lookup result for CCOC(=O)[C@H](CC(C)C)NC(=O)CCC1CC(OC(=O)NCCc2ccc(F)cc2)CC2(CCCC(COC(=O)NCc3ccccc3)O2)O1 (stereo not given in full) ; measured composite z-score: 0.461

Lookup result for CC1CC/C=C\[C@H]2OC34C=CCN(C(C)C)C(=O)[C@H]3N(CCCO)C(=O)[C@@H]4C2C(=O)O1 (stereo not given in full) ; measured composite z-score: -0.835

Lookup result for O=C1C[C@@H](O)[C@@H](O)[C@@H]2[C@@H]3C(=O)N(c4cccc(Oc5ccccc5)c4)C(=O)[C@@H]3CC[C@@H]12 ; measured composite z-score: 0.726

Lookup result for COc1ccc([Si](C)(C)[C@H]2[C@H](CC(=O)N3CCC[C@H]3CO)O[C@@]3(C(=O)N(Cc4cccc(N5C(=O)COc6ccccc65)c4)c4ccccc43)[C@@H]2C)cc1 ; measured composite z-score: 0.74

Lookup result for C[C@@H](c1ccccc1)N1C(=O)[C@H]2[C@H]3[C@H](O)[C@H](O)CC(=NNC(=O)OCc4ccccc4)[C@H]3CC[C@H]2C1=O ; measured composite z-score: -0.131

Lookup result for CN1C(=O)C2C=CC(C(O)C(c3ccccc3)c3ccccc3)N(NC(=O)OC(C)(C)C)C2C1=O (stereo not given) ; measured composite z-score: 0.752

Lookup result for O=C1C2=CC[C@H]3C(=O)N(Cc4ccc5c(c4)OCO5)C(=O)[C@H]3[C@H]2[C@H](O)[C@@H]2O[C@H]12 ; measured composite z-score: 0.0823

Lookup result for CO[C@H]1COC(=O)[C@@H]2CCCN2C(=O)CC=C[C@@H](C)[C@H](OC)COC(=O)CC=C[C@@H]1C ; measured composite z-score: 0.298

Lookup result for CC(C)=C1C(=O)C(c2ccccc2)=C2CN3C(=O)N(CCc4ccccc4)C(=O)[C@]3(Cc3ccc(F)cc3)[C@H]21 ; measured composite z-score: -0.27

Lookup result for COC(=O)[C@@]1(Cc2ccc(F)cc2)[C@H]2c3cc(C(=O)N(C)C)n(Cc4ccc(OC)c(OC)c4)c3C[C@H]2CN1C(=O)c1ccccc1 ; measured composite z-score: 0.835

Lookup result for COCCCNC(=O)[C@]1(Cc2ccccc2)N=C(c2ccc(OCCCO)cc2)O[C@@H]1c1ccccc1 ; measured composite z-score: 0.825

Lookup result for COc1ccc(O[C@H]2C=C[C@@H](c3ccccc3)O[C@@H]2COC(=O)CCC(C)=NOC[C@@H](C)[C@H](OCc2ccccc2)C(C)C)cc1 ; measured composite z-score: -0.794

Lookup result for COc1ccc(O[C@H]2C=C[C@@H](c3ccccc3)O[C@@H]2COC(=O)CCC(C)=NO[C@@H](C)c2cc(-c3c(C)cc(C)cc3C)no2)cc1 ; measured composite z-score: -0.782

Lookup result for CCOC(=O)C1=CCC(c2cc3ccccc3[nH]2)NC1 (stereo not given) ; measured composite z-score: -0.753

Lookup result for C[C@@H]1C=CCC(=O)OC[C@H](C)C(=O)N[C@@H](C)C(=O)OC1 ; measured composite z-score: -0.059

Lookup result for CC(C)CON=C1C[C@@H](O)[C@@H](O)[C@@H]2[C@@H]3C(=O)N(C[C@@H]4CCCO4)C(=O)[C@@H]3CC[C@H]12 ; measured composite z-score: 0.0241

Lookup result for O=C1C[C@@H](O)[C@@H](O)[C@@H]2[C@@H]3C(=O)N(c4ccc(F)cc4F)C(=O)[C@@H]3CC[C@@H]12 ; measured composite z-score: -0.0741

Lookup result for CC(=O)OC[C@H]1O[C@H](CC=NOC[C@@H](C)[C@H](OCc2ccccc2)C(C)C)C=C[C@@H]1OC(C)=O ; measured composite z-score: -0.303

Lookup result for COCC1=C2[C@@H](CCc3ccccc3)OB(O)C[C@@H]2n2c(=O)n(-c3ccccc3)c(=O)n2C1 ; measured composite z-score: 0.835

Lookup result for CC(=O)O[C@H]1C2=C(C(=O)[C@@H]3O[C@@H]31)[C@H]1C(C)O[C@@H]2[C@@]23C(=O)[C@@H]4O[C@@H]4[C@@H](O)C2=CO[C@H](C)[C@@H]13 (stereo not given in full) ; measured composite z-score: -0.697
